# subjectOfTest: recombinant human β-Klotho (UniProt Q86Z14 53-996)
# Sequence (Q86Z14 53-996): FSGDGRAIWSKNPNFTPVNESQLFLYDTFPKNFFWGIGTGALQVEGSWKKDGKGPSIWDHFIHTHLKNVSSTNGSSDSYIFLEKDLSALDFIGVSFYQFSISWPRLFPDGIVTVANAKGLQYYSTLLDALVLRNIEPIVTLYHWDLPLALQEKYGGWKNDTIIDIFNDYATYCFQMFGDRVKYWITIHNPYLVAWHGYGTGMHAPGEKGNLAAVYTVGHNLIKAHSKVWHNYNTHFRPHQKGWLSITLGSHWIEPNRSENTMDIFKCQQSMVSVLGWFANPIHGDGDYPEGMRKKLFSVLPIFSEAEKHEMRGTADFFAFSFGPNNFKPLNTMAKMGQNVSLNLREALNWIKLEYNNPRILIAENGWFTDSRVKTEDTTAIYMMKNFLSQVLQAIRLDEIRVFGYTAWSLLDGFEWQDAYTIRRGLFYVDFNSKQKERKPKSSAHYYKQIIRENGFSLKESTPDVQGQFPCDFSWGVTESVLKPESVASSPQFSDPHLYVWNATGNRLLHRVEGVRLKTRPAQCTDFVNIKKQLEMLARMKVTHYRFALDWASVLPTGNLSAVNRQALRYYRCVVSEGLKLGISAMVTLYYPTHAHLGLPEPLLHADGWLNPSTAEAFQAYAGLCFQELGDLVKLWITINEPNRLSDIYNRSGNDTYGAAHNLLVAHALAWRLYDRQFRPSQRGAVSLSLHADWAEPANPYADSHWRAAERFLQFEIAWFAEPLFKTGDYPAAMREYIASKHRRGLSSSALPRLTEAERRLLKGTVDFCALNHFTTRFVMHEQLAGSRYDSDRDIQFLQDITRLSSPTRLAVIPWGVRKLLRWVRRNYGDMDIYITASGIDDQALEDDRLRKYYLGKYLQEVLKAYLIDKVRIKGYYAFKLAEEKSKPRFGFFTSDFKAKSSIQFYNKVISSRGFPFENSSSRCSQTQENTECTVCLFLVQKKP
# assaySummary: binding
readoutType: EC50 (nM)
Express the result in nM but write the number alone.

Lookup result for β-Klotho walked dimer BK_R1c_D15 (designed binder) CLPDEFQCGSGRCIPQTWVCDGLNDCGDGSDEPPAHCSAPASEPPGSLCRSNQFTCGNGNCIPQPWVCDGEDDCGDDSDEESCKEHT ; measured EC50: 9.1

Next:
Reported EC50 of β-Klotho walked dimer BK_R1c_D14 (designed binder) CLPDEFQCGSGRCIPQTWVCDGLNDCGDGSDEPPAHCSAPASEPPGSLCRSDEFRCGNGRCIPLTWVCDGEDDCQDSSDETGCTTPGHT : 23

EC50 reading for β-Klotho walked dimer bKWD01 (designed binder) CLPDEFQCGSGRCIPQHWLCDGLNDCGDGSDEPPAHCSAPASEPPGSLCRAGEFRCSNGRCVPLTWLCDGEDDCQDNSDEKNCAQPT : 0.05
